inhibition at 100 µM values, listed per item
Target: TRPV1 (VR1) (h) (Homo sapiens, UniProt Q8NER1)
Construct: host or cells: CHO cells
Sequence (Q8NER1 whole entry): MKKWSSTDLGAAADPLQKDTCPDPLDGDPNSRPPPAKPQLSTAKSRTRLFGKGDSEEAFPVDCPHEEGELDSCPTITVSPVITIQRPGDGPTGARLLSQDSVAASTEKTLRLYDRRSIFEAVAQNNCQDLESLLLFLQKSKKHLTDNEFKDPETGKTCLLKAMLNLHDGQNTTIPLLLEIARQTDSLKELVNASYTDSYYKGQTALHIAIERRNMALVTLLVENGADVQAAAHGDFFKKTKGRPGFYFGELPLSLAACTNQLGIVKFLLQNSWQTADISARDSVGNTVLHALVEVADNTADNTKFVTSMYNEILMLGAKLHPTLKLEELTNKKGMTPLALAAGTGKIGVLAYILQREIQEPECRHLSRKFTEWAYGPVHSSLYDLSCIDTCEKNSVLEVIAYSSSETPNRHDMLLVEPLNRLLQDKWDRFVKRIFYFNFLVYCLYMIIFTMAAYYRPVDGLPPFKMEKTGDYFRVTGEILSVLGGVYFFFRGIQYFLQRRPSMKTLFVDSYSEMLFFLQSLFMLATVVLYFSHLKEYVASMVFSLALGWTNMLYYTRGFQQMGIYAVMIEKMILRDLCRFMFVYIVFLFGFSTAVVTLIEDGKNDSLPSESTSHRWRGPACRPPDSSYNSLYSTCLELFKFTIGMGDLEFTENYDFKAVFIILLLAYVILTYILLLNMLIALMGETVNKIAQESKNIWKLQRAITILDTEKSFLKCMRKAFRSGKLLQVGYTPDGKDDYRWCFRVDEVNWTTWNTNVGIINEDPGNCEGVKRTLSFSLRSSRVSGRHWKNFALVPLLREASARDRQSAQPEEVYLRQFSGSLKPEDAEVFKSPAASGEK
Test: TRPV1 (VR1) (h) (antagonist effect)
Type: cell-based
Conditions: 100 µM, human recombinant CHO cells; read-out: % Inhibition of control agonist response
The reply should contain only the number, in %.

Query :: Return reported inhibition at 100 µM; argument: CC(=O)NC(C(=O)NC1CCN(c2cccc(SC(F)(F)F)c2)C1)c1ccccc1 (centres unmarked) [Compound 24]
Result :: 1.3

Query :: Return reported inhibition at 100 µM; argument: O=C(NC(C(=O)N1CCN(c2cccc(C(F)(F)F)c2)CC1)c1ccccc1)c1ccc(C(F)(F)F)cc1 (centres unmarked) [Compound 9]
Result :: 6.2

Query :: Return reported inhibition at 100 µM; argument: CC(=O)NC(C(=O)NC1CCN(c2cccc(OC(F)(F)F)c2)C1)c1ccccc1 (centres unmarked) [Compound 23]
Result :: -2.7

Query :: Return reported inhibition at 100 µM; argument: O=C(NC(C(=O)N1CCN(c2cccc(C(F)(F)F)c2)CC1)c1ccccc1)c1cccc(C(F)(F)F)c1 (centres unmarked) [Compound 8]
Result :: -6.1

Query :: Return reported inhibition at 100 µM; argument: CC(=O)NC(C(=O)NC1CCN(c2ccccc2)C1)c1ccccc1 (centres unmarked) [Compound 21]
Result :: 4.2

Query :: Return reported inhibition at 100 µM; argument: O=C(NC(C(=O)N1CCN(c2cccc(C(F)(F)F)c2)CC1)c1ccccc1)c1ccc(C(F)(F)F)cn1 (centres unmarked) [Compound 12]
Result :: -1.2

Query :: Return reported inhibition at 100 µM; argument: O=C(NC(C(=O)N1CCN(c2cccc(C(F)(F)F)c2)CC1)c1ccccc1)c1ccccc1C(F)(F)F (centres unmarked) [Compound 7]
Result :: -2.6

Query :: Return reported inhibition at 100 µM; argument: O=C(NC(C(=O)N1CCN(c2cccc(C(F)(F)F)c2)CC1)c1ccccc1)c1ccccc1Cl (centres unmarked) [Compound 4]
Result :: 14.4

FYI, the data here is from paper PMC11378297.
